Cited source: patent US20250027068

target: pooled human IgG (human IgG1,2,3 and 4)
quantityMeasured: Enzyme Activity Endpoint Assay (purified): Fab′2
Give the number first and the unit second.

Documented Enzyme Activity Endpoint Assay (purified): Fab′2 of PRT-636 (protein) MQITSVWTKGVTPLTMDQFRNYNYDVIHAPYKPGQGWYDITKAFDGKDNLLCGAATAGNMLHWWFDQNKTEIEAYLSKHPEKQKIIFNNQELFDLKAAIDTKDSQTNSQLFNYFRDKAFPNLSARQLGVMPDLVLDMFINGYYLNVFKTQSTDVNRPYQDKDKRGGIFDAVFTRGDQTTLLTARHDLKNKGLNDISTIIKQELTEGKALALSHTYANVSISHVINLWGADFNAEGNLEAIYVTDSDANASIGMKKYFVGINAHGHVAISAKKIEGENIGAQVLGLFTLSSGKDIWQKLSLEHHHHHH : 12 ng/µL

protein PRT-344 (protein) MTITSVWTKGVTPPTPEDFRENNEDVLHAPYLANQGWYDITKAFDGKDNLLCGAATAGNMLHWWFDQNKEEIERYLKKHPEKQKIIFGNQELFDVKAAIDTKDSQTNSKLFDYFRDKAFPNLSARQLGVMPDLVLDMFINGYYLNLGKTQSTDVNRPYQDKDKRGGIFDAVFTRGDQTTLLTARHDLKNKGLNEISDLIKQELTEGKALALSHTYANVSINHVINLWGADFDAEGELEAIYVTDSDANPSIGMKKYFVGRNAHGKVAISAKKIEGDNIGAQVLGLFTLSTGQDQWQKLS , Enzyme Activity Endpoint Assay (purified): Fab′2 observed: 562 ng/µL
